Origin of the recorded values: ChEMBL document CHEMBL4396873

Hi there, I'd appreciate the recorded pEC50 for every entry that follows.
# System name: Oxytocin receptor (Homo sapiens)
# Sequence (P30559 whole entry): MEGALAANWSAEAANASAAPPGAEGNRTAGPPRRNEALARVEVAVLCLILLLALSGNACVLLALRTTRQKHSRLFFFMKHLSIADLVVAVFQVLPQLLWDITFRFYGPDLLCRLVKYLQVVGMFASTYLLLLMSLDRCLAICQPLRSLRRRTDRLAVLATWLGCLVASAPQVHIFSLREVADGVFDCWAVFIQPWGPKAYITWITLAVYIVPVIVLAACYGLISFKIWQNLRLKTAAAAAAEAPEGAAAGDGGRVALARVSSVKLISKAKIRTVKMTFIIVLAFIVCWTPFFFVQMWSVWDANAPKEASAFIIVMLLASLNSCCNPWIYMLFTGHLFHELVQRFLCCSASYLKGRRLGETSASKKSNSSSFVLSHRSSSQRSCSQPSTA
# Test summary: Agonist activity at human OTR stably expressed in CHOK1 cells by NFAT-luciferase reporter gene assay
pEC50: −log10 of the molar value. Numbered stars: 1 amine (or outer) side, 2 acyl side, 3 side chain; on linkers, the order of the positions; unused ones are H or OH. Bridge positions count the residues as written; N and C are the ends. Square brackets hold non-standard residues; d marks the D form. Peptide text beside a SMILES is read from it. * marks the point of attachment. Phe(4-Cl) = N[C@@H](Cc1ccc(Cl)cc1)C(=O)O; Phe(4-Et) = CCc1ccc(C[C@H](N)C(=O)O)cc1; Phe(4-F) = N[C@@H](Cc1ccc(F)cc1)C(=O)O; Phe(4-Me) = Cc1ccc(C[C@H](N)C(=O)O)cc1; 2Thi = N[C@@H](Cc1cccs1)C(=O)O; X4 = N=C(N)NCCC[C@@H](CO)N*; X2 = N=C(N)NCCC[C@H](CO)N*; hCys = N[C@@H](CCS)C(=O)O; X1 = O=C(CCC[*:2])[*:1]; X3 = O=C(CC[*:2])[*:1]

For orientation, consider the following solved cases.
Cc1ccc(C[C@@H]2NC(=O)CCCSC[C@@H](C(=O)N3CCC[C@H]3C(=O)N[C@@H](CO)CCCNC(=N)N)NC(=O)[C@H](CC(N)=O)NC(=O)[C@H](C(C)C)NC(=O)[C@H](Cc3cccs3)NC2=O)cc1 ([Phe(4-Me)][2Thi]VNCP-X2; linker N-5 via X1) : < 5.00
CC(C)[C@@H]1NC(=O)[C@H](Cc2cccs2)NC(=O)[C@H](Cc2ccc(Cl)cc2)NC(=O)CCCSC[C@@H](C(=O)N2CCC[C@H]2C(=O)N[C@H](CO)CCCNC(=N)N)NC(=O)[C@H](CC(N)=O)NC1=O ([Phe(4-Cl)][2Thi]VNCP-X4; linker N-5 via X1) : < 5.00
CC(C)[C@@H]1NC(=O)[C@H](Cc2cccs2)NC(=O)[C@H](Cc2ccc(Cl)cc2)NC(=O)CCSCC[C@@H](C(=O)N2CCC[C@H]2C(=O)N[C@@H](CO)CCCNC(=N)N)NC(=O)[C@H](CC(N)=O)NC1=O ([Phe(4-Cl)][2Thi]VN[hCys]P-X2; linker N-5 via X3) : < 5.00
CC(C)[C@@H]1NC(=O)[C@H](Cc2cccs2)NC(=O)[C@H](Cc2ccc(O)cc2)NC(=O)CCCSC[C@@H](C(=O)N2CCC[C@H]2C(=O)N[C@H](CO)CCCNC(=N)N)NC(=O)[C@H](CC(N)=O)NC1=O (Y[2Thi]VNCP-X4; linker N-5 via X1) : 6.64

Below are some compounds; for each one, tell me its pEC50.
1. CC(C)[C@@H]1NC(=O)[C@H](Cc2ccc(F)cc2)NC(=O)[C@H](Cc2ccc(Cl)cc2)NC(=O)CCCSC[C@@H](C(=O)N2CCC[C@H]2C(=O)N[C@@H](CO)CCCNC(=N)N)NC(=O)[C@H](CC(N)=O)NC1=O ([Phe(4-Cl)][Phe(4-F)]VNCP-X2; linker N-5 via X1)
2. CC(C)[C@@H]1NC(=O)[C@H](Cc2cccs2)NC(=O)[C@H](Cc2ccc(Cl)cc2)NC(=O)CCCSC[C@@H](C(=O)N2CSC[C@H]2C(=O)N[C@H](CCCNC(=N)N)C(=O)NCc2ccccc2)NC(=O)[C@H](CC(N)=O)NC1=O
3. CCc1ccc(C[C@@H]2NC(=O)CCCSC[C@@H](C(=O)N3CCC[C@H]3C(=O)N[C@@H](CO)CCCNC(=N)N)NC(=O)[C@H](CC(N)=O)NC(=O)[C@H](C(C)C)NC(=O)[C@H](Cc3cccs3)NC2=O)cc1 ([Phe(4-Et)][2Thi]VNCP-X2; linker N-5 via X1)
4. CC(C)[C@@H]1NC(=O)[C@H](Cc2cccs2)NC(=O)[C@H](Cc2ccc(O)cc2)NC(=O)CCSCC[C@@H](C(=O)N2CCC[C@H]2C(=O)N[C@@H](CO)CCCNC(=N)N)NC(=O)[C@H](CC(N)=O)NC1=O (Y[2Thi]VN[hCys]P-X2; linker N-5 via X3)
5. CC(C)[C@@H]1NC(=O)[C@H](Cc2cccs2)NC(=O)[C@H](Cc2ccc(Cl)cc2)NC(=O)CCCSC[C@@H](C(=O)N2CCC[C@H]2C(=O)N[C@@H](CO)CCCNC(=N)N)NC(=O)[C@H](CC(N)=O)NC1=O ([Phe(4-Cl)][2Thi]VNCP-X2; linker N-5 via X1)

Output line:
< 5.00
6.85
< 5.00
6.80
< 5.00

----------
# Test summary: Clearance in Sprague-Dawley rat at 0.1 mg/kg, iv administered as cassette dose by LC-MS/MS analysis
# Assay type: ADME, organism-based
# Measurement setup: in vivo
Numbered stars: 1 amine (or outer) side, 2 acyl side, 3 side chain; on linkers, the order of the positions; unused ones are H or OH. Bridge positions count the residues as written; N and C are the ends. Square brackets hold non-standard residues; d marks the D form. Peptide text beside a SMILES is read from it. * marks the point of attachment. Phe(4-Cl) = N[C@@H](Cc1ccc(Cl)cc1)C(=O)O; Phe(4-Et) = CCc1ccc(C[C@H](N)C(=O)O)cc1; Phe(4-Me) = Cc1ccc(C[C@H](N)C(=O)O)cc1; 2Thi = N[C@@H](Cc1cccs1)C(=O)O; X2 = N=C(N)NCCC[C@H](CO)N*; X1 = O=C(CCC[*:2])[*:1]; Mpa = O=C(O)CCS
Consider the following compounds; for each one, report its clearance.
Numbers only, in mL/min/kg.

Known clearance results, listed for orientation:
CC(C)[C@@H]1NC(=O)[C@H](Cc2ccccc2)NC(=O)[C@H](Cc2ccc(O)cc2)NC(=O)CCSSC[C@@H](C(=O)N2CCC[C@H]2C(=O)N[C@H](CCCNC(=N)N)C(=O)NCC(N)=O)NC(=O)[C@H](CC(N)=O)NC1=O ([Mpa]YFVNCP[dR]G-NH2; disulfide 1-6) : 9.6
CC(C)CNC(=O)[C@@H](CCCNC(=N)N)NC(=O)[C@@H]1C[C@@H](O)CN1C(=O)[C@@H]1CSCCCC(=O)N[C@@H](Cc2ccc(Cl)cc2)C(=O)N[C@@H](Cc2cccs2)C(=O)N[C@@H](C(C)C)C(=O)N[C@@H](CC(N)=O)C(=O)N1 : 7.8

For each of the compounds below, state clearance.
1. CC(C)[C@@H]1NC(=O)[C@H](Cc2cccs2)NC(=O)[C@H](Cc2ccc(Cl)cc2)NC(=O)CCCSC[C@@H](C(=O)N2CCC[C@H]2C(=O)N[C@@H](CO)CCCNC(=N)N)NC(=O)[C@H](CC(N)=O)NC1=O ([Phe(4-Cl)][2Thi]VNCP-X2; linker N-5 via X1)
2. CCNC(=O)[C@@H](CCCNC(=N)N)NC(=O)[C@@H]1CCCN1C(=O)[C@@H]1CSSCCC(=O)N[C@@H](Cc2ccc(Cl)cc2)C(=O)N[C@@H](Cc2ccccc2)C(=O)N[C@@H](C(C)C)C(=O)N[C@@H](CC(N)=O)C(=O)N1
3. Cc1ccc(C[C@@H]2NC(=O)CCCSC[C@@H](C(=O)N3CCC[C@H]3C(=O)N[C@@H](CO)CCCNC(=N)N)NC(=O)[C@H](CC(N)=O)NC(=O)[C@H](C(C)C)NC(=O)[C@H](Cc3cccs3)NC2=O)cc1 ([Phe(4-Me)][2Thi]VNCP-X2; linker N-5 via X1)
4. CCNC(=O)[C@@H](CCCNC(=N)N)NC(=O)[C@@H]1C[C@@H](O)CN1C(=O)[C@@H]1CSCCCC(=O)N[C@@H](Cc2ccc(Cl)cc2)C(=O)N[C@@H](Cc2ccccc2)C(=O)N[C@@H](C(C)C)C(=O)N[C@@H](CC(N)=O)C(=O)N1
5. CCc1ccc(C[C@@H]2NC(=O)CCCSC[C@@H](C(=O)N3CCC[C@H]3C(=O)N[C@@H](CO)CCCNC(=N)N)NC(=O)[C@H](CC(N)=O)NC(=O)[C@H](C(C)C)NC(=O)[C@H](Cc3cccs3)NC2=O)cc1 ([Phe(4-Et)][2Thi]VNCP-X2; linker N-5 via X1)
6. CCCCNC(=O)[C@@H](CCCNC(=N)N)NC(=O)[C@@H]1CCCN1C(=O)[C@@H]1CSCCCC(=O)N[C@@H](Cc2ccc(Cl)cc2)C(=O)N[C@@H](Cc2cccs2)C(=O)N[C@@H](C(C)C)C(=O)N[C@@H](CC(N)=O)C(=O)N1

Output line:
[4, 7.1, 5.3, 3.3, 9.4, 31]

Required: clearance, one value per compound below.
1. CC(C)[C@@H]1NC(=O)[C@H](Cc2cccs2)NC(=O)[C@H](Cc2ccc(Cl)cc2)NC(=O)CCCSC[C@@H](C(=O)N2CCC[C@H]2C(=O)N[C@H](CCCNC(=N)N)C(=O)NCc2ccccc2)NC(=O)[C@H](CC(N)=O)NC1=O
2. CCNC(=O)[C@@H](CCCNC(=N)N)NC(=O)[C@@H]1C[C@@H](O)CN1C(=O)[C@@H]1CCSCCC(=O)N[C@@H](Cc2ccc(Cl)cc2)C(=O)N[C@@H](Cc2cccs2)C(=O)N[C@@H](C(C)C)C(=O)N[C@@H](CC(N)=O)C(=O)N1

Output line:
[23, 4]
